# subject of test: Factor X (FX), P00742
# Sequence (P00742 whole entry, looked up): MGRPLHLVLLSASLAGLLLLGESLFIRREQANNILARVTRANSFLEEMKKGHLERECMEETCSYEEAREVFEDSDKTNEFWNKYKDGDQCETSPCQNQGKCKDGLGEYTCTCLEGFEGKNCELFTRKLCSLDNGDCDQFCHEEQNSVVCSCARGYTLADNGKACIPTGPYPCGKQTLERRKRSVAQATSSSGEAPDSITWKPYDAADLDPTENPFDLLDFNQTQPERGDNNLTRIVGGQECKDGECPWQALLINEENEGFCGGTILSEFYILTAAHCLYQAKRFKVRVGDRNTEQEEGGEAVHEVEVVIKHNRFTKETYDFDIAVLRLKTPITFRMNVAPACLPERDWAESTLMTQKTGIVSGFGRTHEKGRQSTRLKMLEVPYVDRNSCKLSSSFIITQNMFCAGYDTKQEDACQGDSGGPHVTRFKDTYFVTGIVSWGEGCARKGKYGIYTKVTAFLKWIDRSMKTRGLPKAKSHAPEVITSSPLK
metric name: kcat/KM (M⁻¹ s⁻¹)
Report only the number, with the unit M⁻¹ s⁻¹ understood.

Would you mind telling me what kcat/KM value was observed for FIXa-K247N/N249S/R318Y/T343R/R403E (protein) chain 1: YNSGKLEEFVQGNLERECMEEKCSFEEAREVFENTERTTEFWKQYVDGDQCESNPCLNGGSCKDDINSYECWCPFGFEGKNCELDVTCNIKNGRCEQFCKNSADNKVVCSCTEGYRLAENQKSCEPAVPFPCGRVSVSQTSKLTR chain 2: VVGGEDAKPGQFPWQVVLNGKVDAFCGGSIVNEKWIVTAAHCVETGVKITVVAGEHNIEETEHTEQNRSVIRIIPHHNYNAAINKYNHDIALLELDEPLVLNSYVTPICIADKEYTNIFLKFGSGYVSGWGRVFHKGYSALVLQYLRVPLVDRATCLRSTKFRIYNNMFCAGFHEGGRDSCQGDSGGPHVTEVEGTSFLTGIISWGEECAMKGKYGIYTKVSEYVNWIKEKTKLT ?
3.9e+07

Another protein to look at: FIXa-R318Y/T343R/E410N (protein) chain 1: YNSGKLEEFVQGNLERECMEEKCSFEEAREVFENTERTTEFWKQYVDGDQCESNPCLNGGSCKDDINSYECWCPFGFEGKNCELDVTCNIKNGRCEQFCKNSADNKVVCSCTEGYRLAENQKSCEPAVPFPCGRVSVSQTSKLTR chain 2: VVGGEDAKPGQFPWQVVLNGKVDAFCGGSIVNEKWIVTAAHCVETGVKITVVAGEHNIEETEHTEQKRNVIRIIPHHNYNAAINKYNHDIALLELDEPLVLNSYVTPICIADKEYTNIFLKFGSGYVSGWGRVFHKGYSALVLQYLRVPLVDRATCLRSTKFRIYNNMFCAGFHEGGRDSCQGDSGGPHVTEVEGTSFLTGIISWGEECAMKGKYGIYTKVSRYVNWIKNKTKLT
6.2e+07

Moving on to the next protein: FIXa-Y155F/K247N/N249S/R338E/T343R (protein) chain 1: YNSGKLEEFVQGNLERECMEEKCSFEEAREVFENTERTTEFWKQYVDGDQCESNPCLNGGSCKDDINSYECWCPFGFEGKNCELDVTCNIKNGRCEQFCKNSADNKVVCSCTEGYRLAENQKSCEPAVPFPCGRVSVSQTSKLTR chain 2: VVGGEDAKPGQFPWQVVLNGKVDAFCGGSIVNEKWIVTAAHCVETGVKITVVAGEHNIEETEHTEQNRSVIRIIPHHNYNAAINKYNHDIALLELDEPLVLNSYVTPICIADKEYTNIFLKFGSGYVSGWGRVFHKGRSALVLQYLRVPLVDRATCLESTKFRIYNNMFCAGFHEGGRDSCQGDSGGPHVTEVEGTSFLTGIISWGEECAMKGKYGIYTKVSRYVNWIKEKTKLT
7.3e+08

Also, FIXa-Y155F/K247N/N249S/T343R/E410N (protein) chain 1: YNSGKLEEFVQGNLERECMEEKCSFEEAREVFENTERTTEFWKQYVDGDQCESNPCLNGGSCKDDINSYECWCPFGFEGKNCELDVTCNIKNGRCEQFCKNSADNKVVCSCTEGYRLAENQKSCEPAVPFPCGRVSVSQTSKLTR chain 2: VVGGEDAKPGQFPWQVVLNGKVDAFCGGSIVNEKWIVTAAHCVETGVKITVVAGEHNIEETEHTEQNRSVIRIIPHHNYNAAINKYNHDIALLELDEPLVLNSYVTPICIADKEYTNIFLKFGSGYVSGWGRVFHKGRSALVLQYLRVPLVDRATCLRSTKFRIYNNMFCAGFHEGGRDSCQGDSGGPHVTEVEGTSFLTGIISWGEECAMKGKYGIYTKVSRYVNWIKNKTKLT please.
2.8e+08

Same lookup for FIXa-R318Y/R338E/T343R (protein) chain 1: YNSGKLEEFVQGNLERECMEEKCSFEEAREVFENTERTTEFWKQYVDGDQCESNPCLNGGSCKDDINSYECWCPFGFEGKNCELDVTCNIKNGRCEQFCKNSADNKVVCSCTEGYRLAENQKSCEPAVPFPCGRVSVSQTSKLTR chain 2: VVGGEDAKPGQFPWQVVLNGKVDAFCGGSIVNEKWIVTAAHCVETGVKITVVAGEHNIEETEHTEQKRNVIRIIPHHNYNAAINKYNHDIALLELDEPLVLNSYVTPICIADKEYTNIFLKFGSGYVSGWGRVFHKGYSALVLQYLRVPLVDRATCLESTKFRIYNNMFCAGFHEGGRDSCQGDSGGPHVTEVEGTSFLTGIISWGEECAMKGKYGIYTKVSRYVNWIKEKTKLT , please.
1.5e+08

Would you mind doing FIXa-Y155F/K247N/N249S/T343R/R403E/E410N (protein) chain 1: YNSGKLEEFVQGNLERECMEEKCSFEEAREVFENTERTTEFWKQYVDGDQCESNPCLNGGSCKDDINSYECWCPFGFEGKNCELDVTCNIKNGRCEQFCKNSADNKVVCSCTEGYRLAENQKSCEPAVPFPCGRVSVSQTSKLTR chain 2: VVGGEDAKPGQFPWQVVLNGKVDAFCGGSIVNEKWIVTAAHCVETGVKITVVAGEHNIEETEHTEQNRSVIRIIPHHNYNAAINKYNHDIALLELDEPLVLNSYVTPICIADKEYTNIFLKFGSGYVSGWGRVFHKGRSALVLQYLRVPLVDRATCLRSTKFRIYNNMFCAGFHEGGRDSCQGDSGGPHVTEVEGTSFLTGIISWGEECAMKGKYGIYTKVSEYVNWIKNKTKLT as well?
2.9e+08

Next entry: FIXa-Y155F/R318Y/R338E/T343R (protein) chain 1: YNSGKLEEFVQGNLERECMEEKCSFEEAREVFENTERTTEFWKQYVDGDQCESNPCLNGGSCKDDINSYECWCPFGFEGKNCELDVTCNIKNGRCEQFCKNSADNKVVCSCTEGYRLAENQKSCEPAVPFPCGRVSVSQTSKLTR chain 2: VVGGEDAKPGQFPWQVVLNGKVDAFCGGSIVNEKWIVTAAHCVETGVKITVVAGEHNIEETEHTEQKRNVIRIIPHHNYNAAINKYNHDIALLELDEPLVLNSYVTPICIADKEYTNIFLKFGSGYVSGWGRVFHKGYSALVLQYLRVPLVDRATCLESTKFRIYNNMFCAGFHEGGRDSCQGDSGGPHVTEVEGTSFLTGIISWGEECAMKGKYGIYTKVSRYVNWIKEKTKLT
3.6e+08
